Kindly state clearance for each of the entries shown.
Experiment: Mouse pharmacokinetics
Type: in vivo, ICR mouse
Conditions: ICR, IV, 50 mg/kg, plasma
Numbers only here, please. The scale is mL/min/kg.

Which clearance reading was recorded for the compound `O=C1N2C[C@@H](CC[C@H]2C2=NO[C@]3(CCNC3)C2)N1OS(=O)(=O)O` ? 27

Which clearance reading was recorded for the compound `NCC1(CN)CC([C@@H]2CC[C@@H]3CN2C(=O)N3OS(=O)(=O)O)=NO1` ? 15.2

Which clearance reading was recorded for the compound NCC1CC([C@@H]2CC[C@@H]3CN2C(=O)N3OS(=O)(=O)O)=NO1 (stereo partly drawn) ? 24.3

====

Target: KPC-3 β-lactamase (class A) (Klebsiella pneumoniae, UniProt Q9F663, H272Y)
Sequence (Q9F663 25-293 H272Y): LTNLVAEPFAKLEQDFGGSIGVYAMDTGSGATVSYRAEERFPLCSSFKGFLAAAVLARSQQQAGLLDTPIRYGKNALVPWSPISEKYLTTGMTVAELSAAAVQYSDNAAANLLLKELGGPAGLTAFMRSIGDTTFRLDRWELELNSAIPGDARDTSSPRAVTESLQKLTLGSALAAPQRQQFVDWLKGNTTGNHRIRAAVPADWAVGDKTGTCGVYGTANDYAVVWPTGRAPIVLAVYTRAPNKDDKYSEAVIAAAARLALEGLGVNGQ
Assay: Inhibitory activity against β-lactamases (nitrocefin), KPC-3
Type: biochemical, K. pneumoniae
Kindly state IC50 for each of the entries shown.
Numbers only here, please. The scale is nM.

Which IC50 reading was recorded for the compound `NC[C@H]1CC([C@@H]2CC[C@@H]3CN2C(=O)N3OS(=O)(=O)O)=NO1` ? 3030

Which IC50 reading was recorded for the compound `O=C1N2C[C@@H](CC[C@H]2C2=NO[C@]3(CCNC3)C2)N1OS(=O)(=O)O` ? 2740

====

Test: Mouse pharmacokinetics
Assay type: in vivo, ICR mouse
Settings: ICR, IV, 50 mg/kg, plasma
Kindly state AUC(0-inf) for each of the entries shown.
Numbers only here, please. The scale is ng·h/mL.

Which AUC(0-inf) reading was recorded for the molecule O=C1N2C[C@@H](CC[C@H]2C2=NO[C@]3(CCNC3)C2)N1OS(=O)(=O)O [Example 17] ? 31000

Which AUC(0-inf) reading was recorded for the molecule NCC1(CN)CC([C@@H]2CC[C@@H]3CN2C(=O)N3OS(=O)(=O)O)=NO1 [Example 5] ? 55300

Which AUC(0-inf) reading was recorded for the molecule NCC1CC([C@@H]2CC[C@@H]3CN2C(=O)N3OS(=O)(=O)O)=NO1 (stereo partly drawn) [Example 2] ? 34500

====

Test system: K. pneumoniae 3784
Test: BLI potentiation MIC, K. pneumoniae 3784 (SHV-11, SHV-12, DHA-1)
Format: cell-based
Settings: BLI fixed 4 ug/ml; incubation 19 h
reported_endpoint: MIC of Meropenem with BLI (µg/mL)
Numbers only here, please. The scale is µg/mL.

Which MIC of Meropenem with BLI reading was recorded for the compound NCC1(C(N)=O)CC([C@@H]2CC[C@@H]3CN2C(=O)N3OS(=O)(=O)O)=NO1 (stereo partly shown) [Example 14] ? 0.25

Which MIC of Meropenem with BLI reading was recorded for the compound NCC1(CO)CC([C@@H]2CC[C@@H]3CN2C(=O)N3OS(=O)(=O)O)=NO1 (stereo partly shown) [Example 13] ? 0.25

Which MIC of Meropenem with BLI reading was recorded for the compound NCCONC(=O)[C@@H]1CC[C@@H]2CN1C(=O)N2OS(=O)(=O)O [OP-595] ? 0.25

Which MIC of Meropenem with BLI reading was recorded for the compound NC(=O)CN1CCC2(CC([C@@H]3CC[C@@H]4CN3C(=O)N4OS(=O)(=O)O)=NO2)C1 (stereo partly shown) [Example 12] ? 1

====

Experiment: Mouse pharmacokinetics
Type: in vivo, ICR mouse
Conditions: ICR, IV, 50 mg/kg, plasma
Kindly state Tmax for each of the entries shown.
Numbers only here, please. The scale is min.

Which Tmax reading was recorded for the compound NCC1CC([C@@H]2CC[C@@H]3CN2C(=O)N3OS(=O)(=O)O)=NO1 (stereo partly drawn) [Example 2] ? 4.8

Which Tmax reading was recorded for the compound O=C1N2C[C@@H](CC[C@H]2C2=NO[C@]3(CCNC3)C2)N1OS(=O)(=O)O [Example 17] ? 4.8

Which Tmax reading was recorded for the compound NCC1(CN)CC([C@@H]2CC[C@@H]3CN2C(=O)N3OS(=O)(=O)O)=NO1 [Example 5] ? 4.8

Origin of values: patent US10273235B2
